Known pIC50 of a selection of compounds
- Subject of test: C-Raf kinase (Homo sapiens, UniProt P04049, Y340D/Y341D)
- Construct: Y340D,; GST (N); purchased Sigma
- Sequence (P04049 307-648 Y340D/Y341D): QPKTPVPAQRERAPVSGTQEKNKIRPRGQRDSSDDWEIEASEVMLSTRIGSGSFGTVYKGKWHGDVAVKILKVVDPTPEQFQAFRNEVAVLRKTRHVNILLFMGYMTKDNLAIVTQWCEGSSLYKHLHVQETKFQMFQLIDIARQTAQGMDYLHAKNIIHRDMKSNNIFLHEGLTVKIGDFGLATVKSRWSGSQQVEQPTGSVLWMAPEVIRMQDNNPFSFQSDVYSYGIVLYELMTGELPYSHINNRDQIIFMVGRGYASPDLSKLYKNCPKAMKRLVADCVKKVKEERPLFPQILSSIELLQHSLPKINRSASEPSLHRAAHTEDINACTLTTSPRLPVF
- Test: Biochemical assay for C-Raf.1 (coupled pyruvate kinase/lactate dehydrogenase)
- Conditions: read-out: CRAF.1 IC50
pIC50: −log10 of the molar value.

Can you share its pIC50? I mean this compound: `Cc1ccc(NC(=O)N[C@H]2C[C@](C)(F)C2)cc1-c1cc(OCCO)nc(-c2ccnc(NC(=O)CN(C)C)c2)c1`
≥ 7.00

Can you share its pIC50? I mean this compound: `COC(C)(C)CCNC(=O)Nc1cc(-c2nccc(-c3ccnc(NC(=O)C4CC4)c3)n2)c(C)cc1F`
≥ 7.00

---

Known IC50 of a selection of compounds
- System: A375 cells
- Test: A375 cell proliferation assay (1), resazurin, 96-well
- Format: cell-based
- Conditions: Homo sapiens, A-375, inhibition of cell proliferation

Some compounds with recorded IC50:
• Cc1ccc(NC(=O)NC2CCCCCC2)cc1-c1cc(OCCO)nc(N2CCOCC2)c1 [Example 13] = 1000 to 10000 nM
• Cc1ncc(NC(=O)NCCC2(C)CC2)cc1-c1cc(OCCO)nc(-c2ccnc(NC(=O)C3CC3)c2)n1 [Example 133] = 500 to 1000 nM

Now examine the next entry.
State its IC50 on A375 cells: COC(=O)Nc1cc(-c2cc(-c3cc(NC(=O)NCCC(C)(C)OC)c(F)cc3F)ccn2)ccn1 [Example 163]
1000 to 10000 nM

---

- Subject of test: A-Raf kinase (Homo sapiens, UniProt P10398, Y301D/Y302D)
- Construct: purchased Sigma
- Sequence (P10398 with tags, fused parts or gaps Y301D/Y302D): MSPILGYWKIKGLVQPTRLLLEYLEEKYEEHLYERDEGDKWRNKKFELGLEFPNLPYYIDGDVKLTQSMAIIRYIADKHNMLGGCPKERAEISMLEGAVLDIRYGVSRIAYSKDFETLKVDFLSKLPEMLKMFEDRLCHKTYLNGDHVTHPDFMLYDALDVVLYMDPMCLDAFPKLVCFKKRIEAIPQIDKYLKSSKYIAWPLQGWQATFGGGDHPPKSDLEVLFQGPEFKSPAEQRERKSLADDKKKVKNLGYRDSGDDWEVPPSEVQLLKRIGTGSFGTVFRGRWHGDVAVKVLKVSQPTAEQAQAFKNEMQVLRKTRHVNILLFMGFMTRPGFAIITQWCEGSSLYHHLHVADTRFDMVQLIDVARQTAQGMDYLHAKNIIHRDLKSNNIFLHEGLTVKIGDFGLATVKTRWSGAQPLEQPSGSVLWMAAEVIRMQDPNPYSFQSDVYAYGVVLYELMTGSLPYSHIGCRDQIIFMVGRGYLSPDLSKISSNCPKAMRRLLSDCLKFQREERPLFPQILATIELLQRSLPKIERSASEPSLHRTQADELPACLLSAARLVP
- Test: Biochemical assay for A-Raf.1 (coupled pyruvate kinase/lactate dehydrogenase)
- Conditions: read-out: ARAF.1 IC50
pIC50: −log10 of the molar value.
Known pIC50 of a selection of molecules

Some molecules with recorded pIC50:
• Cc1ccc(NC(=O)N2CCC(F)(F)C2)cc1-c1cncc(-c2cc(NC(=O)C3CC3)ncn2)c1 [Example 209] = < 6.00
• Cc1ncc(NC(=O)NCCC2(C)CC2)cc1-c1cc(OCCO)nc(-c2ccnc(NC(=O)C3CC3)c2)n1 [Example 133] = 6.00 to 6.30
• CNC(=O)c1cc(-c2cnnc(-c3cc(NC(=O)NCCC(C)(C)C)c(F)cc3C)c2)ccn1 [Example 119] = < 6.00
• Cc1cc(F)c(NC(=O)NCCC(C)C)cc1-c1cc(OCCO)nc(-c2ccnc(NC(=O)C3CC3)c2)c1 [Example 106] = < 6.00
• COC(=O)Nc1cc(-c2cc(-c3cc(NC(=O)NCCC(C)(C)F)cnc3C)cc(OCCO)n2)ccn1 [Example 165] = < 6.00

Now examine the next entry.
Can you share its pIC50? I mean this molecule: Cc1ncc(NC(=O)NCCC(C)(C)F)cc1-c1ccnc(-c2ccnc(NC(=O)C3CC3)c2)n1 [Example 136]
< 6.00

---

Known IC50 of a selection of molecules
- Subject of test: A-Raf kinase (Homo sapiens, UniProt P10398, Y301D/Y302D)
- Construct: purchased Sigma
- Test: Biochemical assay for A-Raf.1 (coupled pyruvate kinase/lactate dehydrogenase)
- Conditions: read-out: ARAF.1 IC50

Some molecules with recorded IC50:
• COC(=O)Nc1cc(-c2cnnc(-c3cc(NC(=O)NCCC(C)(C)OC)c(F)cc3C)c2)ccn1 = > 1000 nM
• COC[C@@H]1CCN(C(=O)Nc2cc(-c3cc(-c4ccnc(NC(=O)OC)c4)cnn3)c(C)cc2F)C1 = > 1000 nM

Can you share its IC50? I mean this molecule: `Cc1ccc(NC(=O)N2CC[C@H](C(F)(F)F)C2)cc1-c1cncc(-c2cc(NC(=O)C3CC3)ncn2)c1`
500 to 1000 nM

---

- Tested on: A375 cells
- Test: A375 cell proliferation assay (1), resazurin, 96-well
- Format: cell-based
- Conditions: Homo sapiens, A-375, inhibition of cell proliferation
pIC50: −log10 of the molar value.
Assay readout: pIC50

* Cc1cc(F)c(NC(=O)NCCC(C)(C)F)cc1-c1cccc(-c2cc(NC(=O)C3CC3)ncn2)c1 | 5.00 to 6.00
* CNC(=O)c1cc(-c2cc(-c3cc(NC(=O)N4CC[C@H](C(F)(F)F)C4)ccc3C)ccn2)ccn1 | 5.00 to 6.00
* COC[C@H]1CCN(C(=O)Nc2cnc(C)c(-c3cc(OCCO)nc(-c4ccnc(NC(=O)OC)c4)c3)c2)C1 | 5.00 to 6.00
* CC(=O)Nc1cc(-c2cc(-c3cc(NC(=O)NCCC4(C(F)(F)F)CC4)c(F)cc3C)cc(C3CC3)n2)ccn1 | 6.30 to 7.00
* Cc1cc(F)c(NC(=O)NCCC(C)(C)C#N)cc1-c1cccc(-c2ccnc(NC(=O)C3CC3)c2)c1 | 5.00 to 6.00
* COC(=O)Nc1cc(-c2cncc(-c3cc(NC(=O)N4CC[C@H](C(F)(F)F)C4)ccc3C)c2)ccn1 | 6.00 to 6.30

Now examine the next entry.
Can you share its pIC50? I mean this molecule: Cc1ccc(NC(=O)N2CCC(C(F)(F)F)C2)cc1-c1cccc(-c2cc(NC(=O)C3CC3)ncn2)c1 (stereo not shown)
6.30 to 7.00

---

- System: A375 cells
- Test: A375 cell proliferation assay (1), resazurin, 96-well
- Type: cell-based
- Conditions: Homo sapiens, A-375, inhibition of cell proliferation
Assay readout: IC50

Some compounds with recorded IC50:
• CC(=O)Nc1cc(-c2cc(-c3cc(NC(=O)NCC45CC(F)(C4)C5)c(F)cc3C)cc(OCCO)n2)ccn1 = 1000 to 10000 nM
• COC[C@@H]1CCN(C(=O)Nc2cnc(C)c(-c3ccnc(-c4ccnc(NC(=O)OC)c4)c3)c2)C1 = 1000 to 10000 nM
• CC(=O)Nc1cc(-c2cc(-c3cc(NC(=O)NC4CC(C)(C)C4)c(F)cc3C)cc(OCCO)n2)ccn1 = ≤ 100 nM
• Cc1ccc(NC(=O)N[C@H]2C[C@](C)(F)C2)cc1-c1cc(-c2ccnc(NC(=O)C3CC3)c2)nc(C2CC2)c1 = 1000 to 10000 nM
• COC[C@H]1CCN(C(=O)Nc2cnc(C)c(-c3ccnc(-c4ccnc(NC(=O)OC)c4)c3)c2)C1 = 1000 to 10000 nM

Can you share its IC50? I mean this compound: `Cc1ccc(NC(=O)N2CC[C@H](C(F)(F)F)C2)cc1-c1cncc(-c2ccnc(NC(=O)C3CC3)c2)c1`
100 to 500 nM

Can you share its IC50? I mean this compound: `Cc1cc(F)c(NC(=O)N[C@@H]2CC[C@H](F)C2)cc1-c1cc(OCCO)nc(-c2ccnc3[nH]ncc23)c1`
1000 to 10000 nM

Can you share its IC50? I mean this compound: `Cc1ccc(NC(=O)N2CCC(F)(F)C2)cc1-c1cncc(-c2cc(NC(=O)C3CC3)ncn2)c1`
1000 to 10000 nM

Can you share its IC50? I mean this compound: `Cc1cc(F)c(NC(=O)NCCC2(C(F)(F)F)CC2)cc1-c1cc(N2CCOCC2)nc(N2CCOCC2)c1`
500 to 1000 nM

Can you share its IC50? I mean this compound: `Cc1cc(F)c(NC(=O)NCCC(C)(C)F)cc1-c1cccc(-c2ccnc3[nH]ncc23)c1`
1000 to 10000 nM

Can you share its IC50? I mean this compound: `Cc1ccc(NC(=O)N[C@@H]2CCc3ccccc32)cc1-c1cc(OCCO)nc(N2CCOCC2)c1`
1000 to 10000 nM

---

Known IC50 of a selection of compounds
- Subject of test: A-Raf kinase (Homo sapiens, UniProt P10398, Y301D/Y302D)
- Construct: purchased Sigma
- Test: Biochemical assay for A-Raf.1 (coupled pyruvate kinase/lactate dehydrogenase)
- Conditions: read-out: ARAF.1 IC50

Can you share its IC50? I mean this compound: CC(=O)Nc1cc(-c2cc(-c3cc(NC(=O)NCCC4(C)CC4)c(F)cc3C)cc(NCCO)n2)ccn1 [Example 175]
0.1 to 0.5 µM

Can you share its IC50? I mean this compound: CCNC(=O)Nc1cc(-c2cc(OCCO)nc(-c3ccnc(NC(=O)C4CC4)c3)c2)c(C)cc1F [Example 98]
> 1 µM

Can you share its IC50? I mean this compound: Cc1ccc(NC(=O)N[C@H]2CCc3ccccc32)cc1-c1cc(OCCO)nc(N2CCOCC2)c1 [Example 20]
> 1 µM

Can you share its IC50? I mean this compound: Cc1cc(F)c(NC(=O)NCCC(C)(C)F)cc1-c1cc(OCCO)nc(-c2ccnc3[nH]ccc23)c1 [Example 97]
> 1 µM

Can you share its IC50? I mean this compound: COC1(CCNC(=O)Nc2cc(-c3cc(-c4cnn(C)c4)nc(N4CCOCC4)c3)c(C)cc2F)CC1 [Example 35]
> 1 µM

Can you share its IC50? I mean this compound: Cc1cc(F)c(NC(=O)NCCC(C)(C)F)cc1-c1cc(-c2ccnc(NC(=O)C3CC3)c2)cnn1 [Example 139]
> 1 µM
